assay type: in vitro ADME, Rat; settings: clearance in microsomes
*1 amine or outer side, *2 acyl side, *3 side chain or, on linkers, in order; H or OH if unused. Where a SMILES comes first, the peptide text is derived from it. [ ]: non-standard residue; d: D form. X2 = C#CCn1cc(C[C@@H](C(=O)[*:2])N(C)[*:1])c2ccccc21; X5 = C=CCn1cc(C[C@@H](C(=O)[*:2])N(C)[*:1])c2ccccc21; NMeTrp(1-Me) = CN[C@@H](Cc1cn(C)c2ccccc12)C(=O)O; X1 = C#CCn1cc(C[C@H](N[*:1])C(=O)[*:2])c2ccccc21; NMeLeu(5-OH,4R) = CN[C@@H](C[C@@H](C)CO)C(=O)O; Phe(βR-OMe) = CO[C@H](c1ccccc1)[C@H](N)C(=O)O; NMeL = CN[C@@H](CC(C)C)C(=O)O; Pra = C#CC[C@H](N)C(=O)O
Below, each entry is listed with its recorded Microsomal Stability Rat.

Here's what some known entries look like.
compound: C#CC[C@@H]1NC(=O)[C@H](CC(C)C)N(C)C(=O)[C@H](C(C)C)NC(=O)[C@H]([C@H](OC)c2ccccc2)NC(=O)[C@H](C)NC(=O)[C@H](C[C@@H](C)CO)N(C)C(=O)[C@H](Cc2cn(C)c3ccccc23)N(C)C1=O [Compound 20] (cyclo(A[Phe(βR-OMe)]V[NMeL][Pra][NMeTrp(1-Me)][NMeLeu(5-OH,4R)]))
value.measured: > 88 %Qh
//
compound: C#CCn1cc(C[C@H]2C(=O)N(C)[C@@H](C[C@@H](C)CO)C(=O)N[C@@H](C)C(=O)N[C@@H]([C@H](OC)c3ccccc3)C(=O)N[C@@H](C(C)C)C(=O)N(C)[C@@H](CC(C)C)C(=O)N[C@@H](C(C)C)C(=O)N2C)c2ccccc21 [Compound 26] (cyclo(A[Phe(βR-OMe)]V[NMeL]V[X2][NMeLeu(5-OH,4R)]))
value.measured: > 88 %Qh
//
compound: C=CCn1cc(C[C@H]2C(=O)N(C)[C@@H](C[C@@H](C)CO)C(=O)N[C@@H](C)C(=O)N[C@@H]([C@H](OC)c3ccccc3)C(=O)N[C@@H](C(C)C)C(=O)N(C)[C@@H](CC(C)C)C(=O)N[C@@H](C(C)C)C(=O)N2C)c2ccccc21 [SI-60] (cyclo(A[Phe(βR-OMe)]V[NMeL]V[X5][NMeLeu(5-OH,4R)]))
value.measured: > 88 %Qh
//
compound: C#CCn1cc(C[C@@H]2NC(=O)[C@H](C(C)C)NC(=O)[C@H](CC(C)C)N(C)C(=O)[C@H](C(C)C)NC(=O)[C@H]([C@H](OC)c3ccccc3)NC(=O)[C@H](C)NC(=O)[C@H](C[C@@H](C)CO)N(C)C2=O)c2ccccc21 [Compound 5] (cyclo(A[Phe(βR-OMe)]V[NMeL]V[X1][NMeLeu(5-OH,4R)]))
value.measured: > 88 %Qh

Attention now shifts to the item below.
query: Let me know recorded Microsomal Stability Rat for CO[C@H](c1ccccc1)[C@@H]1NC(=O)[C@H](C)NC(=O)[C@H](C[C@@H](C)CO)N(C)C(=O)[C@H](Cc2cn(Cc3cn(CCCCCn4cc(Cn5cc(C[C@@H]6NC(=O)[C@H](C(C)C)NC(=O)[C@H](CC(C)C)N(C)C(=O)[C@H](C(C)C)NC(=O)[C@H]([C@H](OC)c7ccccc7)NC(=O)[C@H](C)NC(=O)[C@H](C[C@@H](C)CO)N(C)C6=O)c6ccccc65)nn4)nn3)c3ccccc23)NC(=O)[C@H](C(C)C)NC(=O)[C@H](CC(C)C)N(C)C(=O)[C@H](C(C)C)NC1=O [Compound 9] , thanks.
result: < 23 %Qh

Provenance of the data: paper PMC10914731
